Molecular target: Aβ-ABAD PPI (Homo sapiens, UniProt Q99714)
Construct: wildtype human SH-SY5Y cell lines, which are known to express ABAD; endogenous in cells; host or cells: SH-SY5Y
Sequence (Q99714 2-261 limits assumed): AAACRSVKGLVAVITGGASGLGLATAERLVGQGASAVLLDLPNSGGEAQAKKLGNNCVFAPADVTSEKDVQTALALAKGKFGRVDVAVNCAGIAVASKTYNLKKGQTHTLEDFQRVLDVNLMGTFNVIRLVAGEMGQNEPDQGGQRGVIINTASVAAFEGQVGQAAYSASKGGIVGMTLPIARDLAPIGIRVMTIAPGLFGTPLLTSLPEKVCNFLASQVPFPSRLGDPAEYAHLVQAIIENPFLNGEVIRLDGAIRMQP
Experiment: Estradiol ELISA assay: rescue of Aβ-induced reduction of estradiol levels in SH-SY5Y cells
Format: cell-based
Settings: compounds 24 hours then Aβ 72 hours, amelioration of Aβ-induced reduction of estradiol levels, read-out: IC50 (estradiol assay)
Protocol: Cell Culture. […] Estradiol ELISA assay. SH-SY5Y cells were treated with compounds (24 hours), followed by Aβ (72 hours) in a similar fashion to that employed in the cell viability assays, the cell culture medium was collected, and cells were lysed using RIPA buffer and protease inhibitor cocktail, then proteins were quantified via BCA assay. […] The calculated estradiol concentration was normalized to the total protein content of the samples. Statistical Analyses. […] IC50 values were calculated. […]
QUANTITY NAME: IC50 (nM)

>>> measured_value("O=C(C(c1ccccc1)n1cnc2[nH]ncc2c1=O)N1CCC(O)C1 (stereo not drawn) [Compound 13f]")
1160
>>> measured_value("O=C(C(c1ccc(F)cc1)n1cnc2[nH]ncc2c1=O)N1CCCC(O)C1 (stereo not drawn) [Compound 13j]")
2270

P. O=C(C(c1ccccc1)n1cnc2[nH]ncc2c1=S)N1CCC(O)CC1 (stereo not drawn) [Compound 14b]
Q. O=C(C(c1ccccc1)n1cnc2[nH]ncc2c1=O)N1CC(O)C1 (stereo not drawn) [Compound 13g]
Query :: Lab log: flag the item ( P or Q ) with the smaller IC50 figure. Kindly give the label for the entry you pick.
Result :: P
(P: 740 nM, Q: 1440 nM)

1. O=C(C(c1ccccc1)n1cnc2[nH]ncc2c1=O)N1CCC(O)CC1 (stereo not drawn) [Compound 13b]
2. O=C(C(c1ccccc1)n1cnc2[nH]ncc2c1=O)N1CCSCC1 (stereo not drawn) [Compound 13h]
3. O=C(C(c1ccccc1)n1cnc2[nH]ncc2c1=O)N1CCCCCC1 (stereo not drawn) [Compound 13a]
Query :: Hey, quick one: sort these by IC50, low to high? Rank them, then answer with their labels in that order.
Result :: 1, 3, 2
